Assay: pharmacokinetic assay in SD rats (PO, IP, IV)
Type: in vivo
Conditions: male, rat, plasma, PO 10 mg kg−1, read-out: F (oral bioavailability)
Method: Three male SD rats (208–259 g, 6–8 weeks) per group were purchased from JH Laboratory Animal Co. LTD. All rats were raised under controlled temperature and humidity conditions and had free access to food and water. […] Each rat was injected with a combination solution at doses of 2, 10, and 5 mg kg^−1 for IV, PO, and IP, respectively. […] The plasma concentrations of the compounds were analyzed, and the pharmacokinetic parameters were calculated via WinNonlin.
value type: bioavailability (%)
Record the value in %, omitting the unit from your answer.

Prompt: Quick one: give measured bioavailability for "Clc1ccc2c(c1)N(CCCCCN1CCC3(CCCCC3)CC1)c1ncccc1S2"
Response: 2.23

Prompt: Quick one: give measured bioavailability for "CN1CCN(CCCCCN2c3cc(Cl)ccc3Sc3cccnc32)CC1"
Response: 94.3

---

Assay: pharmacokinetic assay in SD rats (PO, IP, IV)
Type: in vivo
Conditions: male, rat, plasma, PO 10 mg kg−1
Please provide measured Tmax for the entries that follow.
Record the value in h, omitting the unit from your answer.

Prompt: Quick one: give measured Tmax for "Clc1ccc2c(c1)N(CCCCCN1CCC3(CCCCC3)CC1)c1ncccc1S2"
Response: 5.5

Prompt: Quick one: give measured Tmax for "CN1CCN(CCCCCN2c3cc(Cl)ccc3Sc3cccnc32)CC1"
Response: 0.41

---

Assay: pharmacokinetic assay in SD rats (PO, IP, IV)
Type: in vivo
Conditions: male, rat, plasma, IV 2 mg kg−1, read-out: AUC 0–24 h
value type: AUC(0-t) (ng·h/mL)
Record the value in ng·h/mL, omitting the unit from your answer.

Prompt: Quick one: give measured AUC(0-t) for "Clc1ccc2c(c1)N(CCCCCN1CCC3(CCCCC3)CC1)c1ncccc1S2"
Response: 144

Prompt: Quick one: give measured AUC(0-t) for "CN1CCN(CCCCCN2c3cc(Cl)ccc3Sc3cccnc32)CC1"
Response: 8.12

---

Target: GRP75 (Homo sapiens)
Sequence (P38646 47-679): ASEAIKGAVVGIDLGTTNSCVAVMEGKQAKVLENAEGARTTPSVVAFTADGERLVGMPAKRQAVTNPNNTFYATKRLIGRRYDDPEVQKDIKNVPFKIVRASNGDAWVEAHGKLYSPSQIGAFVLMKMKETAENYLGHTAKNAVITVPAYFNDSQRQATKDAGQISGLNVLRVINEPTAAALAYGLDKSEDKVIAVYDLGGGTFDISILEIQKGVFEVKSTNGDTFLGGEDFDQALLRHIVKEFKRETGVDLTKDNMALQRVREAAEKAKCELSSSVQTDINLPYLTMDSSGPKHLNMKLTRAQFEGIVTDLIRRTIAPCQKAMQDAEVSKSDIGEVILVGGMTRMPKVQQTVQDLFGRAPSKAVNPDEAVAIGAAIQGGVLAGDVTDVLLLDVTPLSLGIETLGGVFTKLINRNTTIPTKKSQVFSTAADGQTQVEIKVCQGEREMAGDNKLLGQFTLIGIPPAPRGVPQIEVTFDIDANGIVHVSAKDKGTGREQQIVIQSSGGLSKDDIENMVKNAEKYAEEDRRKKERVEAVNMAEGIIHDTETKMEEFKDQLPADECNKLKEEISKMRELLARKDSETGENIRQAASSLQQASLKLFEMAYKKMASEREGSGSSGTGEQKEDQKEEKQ
Test: microscale thermophoresis (MST) binding assay
Details: His-tagged recombinant GRP75 50 nmol L−1, n = 3; read-out: K d, binding to GRP75 (MST)
value type: pKd
Formally, pKd is defined as -log10 of the concentration c, with c in mol/L.

Prompt: Quick one: give measured pKd for "Clc1ccc2c(c1)N(CCCCCN1CCC3(CCCCC3)CC1)c1ncccc1S2"
Response: 4.42

---

Test: pharmacokinetic assay in SD rats (PO, IP, IV)
Assay type: in vivo
Details: male, rat, plasma, IV 2 mg kg−1, read-out: AUC 24 h−∞
Please provide measured AUC(0-inf) for the entries that follow.
Record the value in ng·h/mL, omitting the unit from your answer.

Prompt: Quick one: give measured AUC(0-inf) for "CN1CCN(CCCCCN2c3cc(Cl)ccc3Sc3cccnc32)CC1"
Response: 13.9

Prompt: Quick one: give measured AUC(0-inf) for "Clc1ccc2c(c1)N(CCCCCN1CCC3(CCCCC3)CC1)c1ncccc1S2"
Response: 153

---

Assay: pharmacokinetic assay in SD rats (PO, IP, IV)
Assay type: in vivo
Conditions: male, rat, plasma, PO 10 mg kg−1
value type: half-life (h)
Record the value in h, omitting the unit from your answer.

Prompt: Quick one: give measured half-life for "CN1CCN(CCCCCN2c3cc(Cl)ccc3Sc3cccnc32)CC1"
Response: 4.03
